Data provenance: patent US20090131468A1

Target: UniProt O14684
Sequence (O14684 1-152): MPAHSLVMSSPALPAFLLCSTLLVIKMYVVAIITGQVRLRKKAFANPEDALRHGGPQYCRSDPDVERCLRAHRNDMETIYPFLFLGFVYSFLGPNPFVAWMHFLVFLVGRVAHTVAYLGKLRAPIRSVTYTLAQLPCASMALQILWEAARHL
EXPERIMENTAL_READOUT: IC50 (nM)

Before answering, review these 2 worked examples.
Qu. Query: IC50; subject: NS(=O)(=O)c1ccccc1S(=O)(=O)NC(=O)c1ccc(Br)cc1O [Example 82]
Ans. 540

Qu. Query: IC50; subject: COc1c(C#CC(C)(C)C)ccc(C(=O)NS(=O)(=O)c2ccccc2S(N)(=O)=O)c1C
Ans. 2000

P. NS(=O)(=O)c1ccccc1S(=O)(=O)NC(=O)c1ccc(C#Cc2cccnc2)nc1
Q. COCCOCCOc1cc(C(=O)NS(=O)(=O)c2ccccc2S(N)(=O)=O)cnc1C#CC1CCCC1
Qu. Out of P and Q , name the one with the higher IC50. Your choice should be expressed through its label.
Ans. P
(P: 2000 nM, Q: 65 nM)
